Listed here are binders together with their documented Kd.
Target: T1, ProQ NTD (FinO domain) (Escherichia coli, UniProt P45577 1-130)
T1 sequence: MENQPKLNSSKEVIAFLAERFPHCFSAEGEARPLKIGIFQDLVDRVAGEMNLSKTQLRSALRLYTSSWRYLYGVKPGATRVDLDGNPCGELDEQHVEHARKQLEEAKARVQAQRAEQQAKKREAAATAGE
Assay: EMSA
Number in nM, nothing else.

Previously resolved entries follow.
cspE81-3'-AtoU (structured_RNA) RNA: GGCCCUUCUGCUGCAAACGUAAUCGCUCUGUAAGAUACGUCAGCAAGAAUUCUUUUCCCGCUUAAUCAGCGGGUUUUUUUU
17
hupA-5'-mut (structured_RNA) RNA: GCGAAAAAAAGUGGCUAUCGGUGCGUGUAUGCAGGAGAGUGCUAUUCUGGCAUUUCCGUCGCACUCGAUGCUUAGCAAGCGAUAAACACAUCGUAAGGAUAACUUACGUUUU
16
malM-3'-AA (structured_RNA) RNA: GCUUUAUCAGCAGUGUAAAAGGCAAGGGGUAAUUACGCCCCACAGUGCUGAUUUUGCAACAACUGGUAAGUCUCCUGGCAAACCUUUUUUU
6.6
malM-3' (structured_RNA) RNA: GCUUUAUCAGCAGUGUAAAAGGCAAGGGGUAAUUACGCCCCACAGUGCUGAUUUUGCAACAACUGGUGCGUCUCCUGGCGCACCUUUUUUU
12

Alright, here's another binder for you.
Task item: # input binder: malM-3'-UU (structured_RNA) RNA: GCUUUAUCAGCAGUGUAAAAGGCAAGGGGUAAUUACGCCCCACAGUGCUGAUUUUGCAACAACUGGUUUGUCUCCUGGCUUACCUUUUUUU ; wanted: its Kd
Reply: 8.7

Source of measurements: paper PMC7367173
